The reported measurements were obtained from the supplement of paper PMC3334620.

Quick reference for PBM E-score among some sequences
- Test system: Yer064c (UniProt P40041)
- Sequence: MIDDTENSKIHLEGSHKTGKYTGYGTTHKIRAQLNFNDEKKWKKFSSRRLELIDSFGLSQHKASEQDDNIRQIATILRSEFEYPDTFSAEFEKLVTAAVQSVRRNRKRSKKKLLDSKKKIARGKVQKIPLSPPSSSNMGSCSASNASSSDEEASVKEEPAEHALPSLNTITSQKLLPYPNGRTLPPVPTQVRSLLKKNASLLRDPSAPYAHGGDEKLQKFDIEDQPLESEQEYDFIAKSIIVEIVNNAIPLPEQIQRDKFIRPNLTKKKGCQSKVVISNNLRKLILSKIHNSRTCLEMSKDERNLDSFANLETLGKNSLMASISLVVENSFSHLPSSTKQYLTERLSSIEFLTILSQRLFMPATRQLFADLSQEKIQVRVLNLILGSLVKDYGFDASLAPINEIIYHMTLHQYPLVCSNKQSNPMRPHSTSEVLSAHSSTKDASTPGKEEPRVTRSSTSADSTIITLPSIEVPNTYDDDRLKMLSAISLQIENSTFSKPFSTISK
- Measurement description: PBM E-score (8-mer binding enrichment) (E-score (-0.5 to 0.5)); higher = stronger / more preferred TF binding
- Assay setup: protein concentration: 200 nM; construct: GST-full length
Whole data set: some 33,000 sequences, median “E-score (-0.5 to 0.5)” near -0.036, cut for the highest 2% near 0.37. This is one part of a sample in which the highest values are shown more often than they occur.
# respond with the number and nothing more

Below: 5 sequences and their reported PBM E-score.
- Record sequence: "AGTCACCA"
  PBM E-score: 0.469
- Record sequence: "AGAGGCGG"
  PBM E-score: -0.16
- Record sequence: "CTGGAGTA"
  PBM E-score: 0.0648
- Record sequence: "ATTCACCG"
  PBM E-score: 0.0472
- Record sequence: "GACTCCCC"
  PBM E-score: 0.405

Next item in the queue.
Lookup: So what does the record say about PBM E-score for `ATTCACCC` ?
Found: 0.0614
